Entries and their %Inh values follow.
Test system: CAMK1D
Conditions: concentration: 1 μM, replicates: in singlicate; n = 1;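 further: KINOMEscan kinase panel screen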
Your answer should be a plain number; it is taken to be in %.

O=C(Nc1n[nH]c2cc(-c3cccc(F)c3)ccc12)C1CC1 [SB-735464] = 22
COC(=O)Nc1nc2cc(Oc3ccc(NC(=O)Nc4cc(F)ccc4F)cc3)ccc2[nH]1.Cl [GW701424] = 20
Fc1ccc(-c2nn3c(OCC(F)(F)F)cccc3c2-c2ccncc2)cc1 [GW514784] = 7
Cl.Nc1ncnc2occ(-c3ccc(NC(=O)Nc4cc(C(F)(F)F)ccc4F)cc3)c12 [SB-707548] = 23
COc1ccc(Nc2nccc(N3CCC(NC(=O)Nc4cc(C)ccc4C)C3)n2)cc1 (centres unmarked) [GSK1379741] = 0

INPUT: Could you share which %Inh value was measured for CN1c2ccc(CNc3ccc(F)cc3)cc2-c2c(cnn2C)S1(=O)=O ?
OUTPUT: 50

INPUT: Requested read-out: %Inh. Entry: c1ccc(-c2n[nH]cc2-c2ccnc3ccccc23)nc1 [GW271431]
OUTPUT: 28

INPUT: Recorded %Inh for Cc1nnc(-c2ccc3ncc(-c4ccc(S(C)=O)cc4)n3c2)o1 (centres unmarked) , please?
OUTPUT: 0

###

Test system: YES
Construct: gene YES1
Conditions: concentration: 1 μM, replicates: in singlicate; n = 1
Parameter %Inh: see the listing below.
Give the number; % is assumed, so skip it.

Examples with answers:
CN(C(=O)c1ccc(-c2cc(-c3c[nH]nc3-c3ccccn3)ccn2)cc1)C1CCOCC1 = 0
O=C(NCCCN1CCOCC1)c1cccc(Nc2nccc(Nc3ccc(Oc4ccccc4)cc3)n2)c1 = 84
CC(C)(C)n1cnc2c(N)ncnc21 = 27
Cc1c2ccc(N(C)c3ccnc(Nc4cccc(S(N)(=O)=O)c4)n3)cc2nn1Cc1ccccc1.Cl.Cl = 50
CNc1ncnc2[nH]ncc12 = 0
CCc1nc(-c2cccc(C)c2)c(-c2ccnc(NCc3ccccc3)c2)s1 = 0
Cc1nnc(-c2ccc3ncc(-c4ccc(S(C)=O)cc4)n3c2)o1 (stereo not drawn) = 0
Cn1ccc2ncnc(Oc3ccc(NC(=O)Nc4ccncc4)c(Cl)c3)c21 = 0

INPUT: What does the data say about its %Inh? Entry: Nc1nccc(-c2c(-c3ccc(F)cc3)ncn2C2CCN(CC(F)(F)F)CC2)n1
OUTPUT: 8

INPUT: I'd like to know its %Inh. The compound in question is O=C(NCCNc1ccnc(Nc2ccc(F)cc2)n1)c1cc2ccccc2s1
OUTPUT: 3

INPUT: What %Inh value was documented for this compound, CC(=O)Nc1ccc(COc2ccc(Nc3ccnc4cc(-c5ccccn5)ccc34)cc2)cc1.Cl ?
OUTPUT: 23

INPUT: So what does the record say about %Inh for CC(C)Oc1ccc2c(-c3ccnc(Nc4ccc(N5CCN(C)CC5)cc4)n3)cnn2n1 ?
OUTPUT: 54

INPUT: # query: %Inh of entry O=C(Nc1n[nH]c2cc(-c3cccc(F)c3)ccc12)C1CC1
OUTPUT: 1

INPUT: Would you mind telling me what %Inh value was observed for Cc1cccc(Cn2ccn3c(=O)cc(N4CCOCC4)nc23)c1 ?
OUTPUT: 19

###

Tested on: EPHA2
Conditions: concentration: 1 μM, replicates: in singlicate; n = 1
# cutoff 1% applies to %Inh; >= gives yes, < gives no

INPUT: Record Cc1ccc(NC(=O)c2ccnc(N3CCN(C)CC3)c2)cc1-c1ccc(C(=O)NCC2CC2)cc1 [GW775604] ; criterion: %Inh no lower than 1%. Met?
OUTPUT: no

INPUT: Is %Inh at least 1%? Consider N#Cc1ccc(-c2cc(-c3c[nH]nc3-c3ccccn3)ccn2)cc1 [GW693028]
OUTPUT: yes

INPUT: Given COc1ccc(Nc2ncc(C#N)c(Nc3ccccc3C(N)=O)n2)cc1N1CCN(C)CC1.Cl [GSK1558669] , state whether its %Inh is at least 1%.
OUTPUT: yes

INPUT: Hi team, for Cn1ccc2ncnc(Oc3ccc(NC(=O)Nc4ccncc4)c(Cl)c3)c21 , is the recorded %Inh at or above 1%?
OUTPUT: no

INPUT: I'd appreciate it if you could say whether [2H]C([2H])(c1cccc(C(F)(F)F)c1C)n1ccn2c(=O)nc(N3CCOCC3)cc12 [GSK2336394] has %Inh at least equal to 1%.
OUTPUT: yes

INPUT: Say whether NS(=O)(=O)c1cccc(-c2ccc3nccc(-c4cccc(S(N)(=O)=O)c4)c3c2)c1 [GW867253] shows %Inh of 1% or more.
OUTPUT: no

###

Tested on: NEK11
Settings: concentration: 1 μM, replicates: in singlicate; n = 1
Each entry below lists one item and its recorded %Inh value.
Expressed in %, but write only the number.

O=C(Nc1cccc(-c2nn3ncccc3c2-c2ccnc(Nc3cccc(C(F)(F)F)c3)n2)c1)c1c(F)cccc1F = 19
CC(C)(C)n1cnc2c(N)ncnc21 = 14

The record that follows has no %Inh shown yet.
INPUT: Give the measured %Inh of Cl.Nc1ncnc2occ(-c3ccc(NC(=O)Nc4cc(C(F)(F)F)ccc4F)cc3)c12 .
OUTPUT: 0

###

Quick reference: %Inh of the listed items.
Tested on: MST2
Construct: gene STK3
Conditions: concentration: 1 μM, replicates: in singlicate; n = 1
# value in %; strip the unit string

Take a look at these entries with their results.
CCn1cnc2c(N)ncnc21 [GW345098] = 7
NS(=O)(=O)CCc1cccc(Nc2nccc(-c3c(-c4cccc(NC(=O)c5c(F)cccc5F)c4)nn4ccccc34)n2)c1 [GSK336735] = 74
c1ccc(-c2n[nH]cc2-c2ccnc3ccccc23)nc1 [GW271431] = 13
Cc1nnc(-c2ccc3ncc(-c4ccc(S(C)=O)cc4)n3c2)o1 (stereo not drawn) = 0

Attention now turns to another entry.
INPUT: Any idea what %Inh was measured for NS(=O)(=O)c1cccc(-c2ccc3ncc(N4CCOCC4)nc3c2)c1 [GSK1535721] ?
OUTPUT: 0

###

Tested on: FLT3-autoinhibited
Conditions: concentration: 1 μM, replicates: in singlicate; n = 1
In this section we review reported %Inh values for a set of compounds.
Hi! Could you send only the number? It should be in %, unit omitted.

Consider the following illustrative entries.
CC(=O)Nc1ccc(COc2ccc(Nc3ccnc4cc(-c5ccccn5)ccc34)cc2)cc1.Cl = 38
CC(C)(CN)c1nc(-c2ccc(Cl)c(O)c2)c(-c2ccncc2)[nH]1.O=C(O)C(F)(F)F = 0
Cc1cn2c(=O)cc(N3CCOCC3)nc2n1Cc1cccc(Cl)c1Cl = 10
Fc1ccc(-c2ncn(CCCN3CCOCC3)c2-c2cccnc2)cc1 = 0
Cc1cccc(-c2nc(Nc3ccc4ncsc4c3)c3ccccc3n2)n1 = 12
Cc1cccc(-c2nc(-c3ccc(S(C)(=O)=O)cc3)sc2-c2ccncc2)c1 = 2

INPUT: What value of %Inh has been reported for the following compound? COc1ccc(S(=O)(=O)NC2CCN(c3cc(C)nc(Nc4cccc(C#N)c4)n3)CC2)cc1.O=C(O)C(F)(F)F
OUTPUT: 0

INPUT: Query: %Inh; subject: O=c1cc(N2CCOCC2)nc2n(Cc3cccc(Cl)c3Cl)c(C3CC3)nn12
OUTPUT: 0

INPUT: Consider the compound NS(=O)(=O)c1cccc(-c2ccc3ncc(N4CCOCC4)nc3c2)c1 and give its measured %Inh.
OUTPUT: 12

###

Test system: ERBB4
Conditions: concentration: 1 μM, replicates: in singlicate; n = 1
# %Inh listing for each entry below
The figure you give is taken to be in %; do not add the unit.

See these solved cases before continuing.
O=C(Nc1n[nH]c2cc(-c3cccc(F)c3)ccc12)C1CC1 = 7
CCc1ccnc(/C=C/c2n[nH]c3cc(Sc4ccccc4C(=O)NC)ccc23)c1 = 21

INPUT: So what's the measured %Inh for this one? COc1ccc(Nc2ncc(C#N)c(Nc3ccccc3C(N)=O)n2)cc1N1CCN(C)CC1.Cl
OUTPUT: 88

INPUT: Name the recorded %Inh for COc1cc2c(cc1OCCN1CCN(C)CC1)ncc1c3ccc(C#N)cc3[nH]c21 .
OUTPUT: 29

INPUT: Request the reported %Inh associated with C[C@@H](Oc1cc(-n2cnc3ccc(NC(=O)NC(C)(C)C)cc32)sc1C(N)=O)c1ccccc1Cl
OUTPUT: 0

###

System: VEGFR2
Construct: gene KDR
Conditions: concentration: 1 μM, replicates: in singlicate; n = 1
propertyMeasured: %Inh (%)
Provide only the numeric value, understood in %.

As a guide, the following entries are already answered.
Cn1ccc2ncnc(Oc3ccc(NC(=O)Nc4ccncc4)c(Cl)c3)c21 = 1
COc1ccc(Nc2ncc(C#N)c(Nc3ccccc3C(N)=O)n2)cc1N1CCN(C)CC1.Cl = 100
Cc1cccc(-c2nc(Nc3ccc4ncsc4c3)c3ccccc3n2)n1 = 6
Nc1nc(-c2ccc3c(N)n[nH]c3c2)cc(N2CCCC2)n1 = 0
O=c1cc(N2CCOCC2)nc2n(Cc3cccc(Cl)c3Cl)c(C3CC3)nn12 = 0
Cl.Nc1ncnc2occ(-c3ccc(NC(=O)Nc4cc(C(F)(F)F)ccc4F)cc3)c12 = 99.8
Cc1ccc(C(=O)NCC(N)=O)cc1-n1c(C)cc(OCc2ccc(F)cc2F)c(Br)c1=O = 0
CN(C(=O)c1ccc(-c2cc(-c3c[nH]nc3-c3ccccn3)ccn2)cc1)C1CCOCC1 = 0

INPUT: Which %Inh is reported with VEGFR2 for this entry: Cc1cccc(-c2nc(-c3ccc(S(C)(=O)=O)cc3)sc2-c2ccncc2)c1 ?
OUTPUT: 0

INPUT: %Inh of O=c1cc(N2CCOCC2)nc2n(Cc3cccc(C(F)(F)F)c3)ccn12 on VEGFR2?
OUTPUT: 13

INPUT: Entry O=C1Cc2cc(Nc3nc(NCc4cccc(S(=O)(=O)C(F)(F)F)c4)ncc3C(F)(F)F)ccc2N1 , system VEGFR2: what %Inh was measured?
OUTPUT: 0
